Ref: PubChem BioAssay AID1159580

test: chemical genetic growth profiling, strain panel (AID 1159580);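 note: tested at 20 µM; growth read once vehicle control cultures reached saturation at 30 °C; 1 = growth at the plate median or of vehicle wells; lower values mean less growth of the strain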; conditions: S. cerevisiae deletion strains, growth OD, locus YKL160W, strain elf1, active compounds read low
Among all 5,500 compounds or so, about 2,000 (36%) were called active. Inconclusive results (about 18%) are left out. This is one part of the list.
Please go through the items and note down their normalized growth.
Just the number, please, no unit attached.

Incoming: Quick one: normalized growth of CC1(C)C(=O)[C@@H]2O[C@@H]2[C@@]2(C)C1C[C@@H](O)[C@]1(C)C2CC[C@@]2(C)[C@H](c3ccoc3)OC(=O)C3OC321 (stereo partly drawn) ?
Outgoing: 0.998

Incoming: So what's the measured normalized growth for this one? CC(=O)O[C@H]1C[C@@H](OC(C)=O)C(C)(C)C2C[C@@H](OC(C)=O)[C@]3(C)C(CC[C@@]4(C)[C@H](c5ccoc5)OC(=O)[C@H]5O[C@]543)[C@]21C (stereo partly drawn)
Outgoing: 1

Incoming: Look up normalized growth: CC(=O)O[C@@H]1CC2C(C)(C)[C@H](O)C=C[C@]2(C)C2CC[C@@]3(C)[C@H](c4ccoc4)OC(=O)C4OC43[C@@]21C (stereo partly drawn)
Outgoing: 1.01

====

Provide the recorded normalized growth for the entries that follow.
assay: chemical genetic growth profiling, strain panel (AID 1159580);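 note: tested at 20 µM; growth read once vehicle control cultures reached saturation at 30 °C; 1 = growth at the plate median or of vehicle wells; lower values mean less growth of the strain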; conditions: S. cerevisiae deletion strains, growth OD, locus YBL061C, strain skt5, active compounds read low
Screen size: about 5,500 compounds; about 2,000 (36%) were called active. Not shown: some 18% with an inconclusive outcome. The list shows a part of the results.

Incoming: // returns reported normalized growth for input CCCCC(=O)O[C@]1(C(=O)CO)CCC2C3CCC4=CC(=O)CC[C@]4(C)C3[C@@H](O)C[C@@]21C (stereo partly drawn)
Outgoing: 0.988 (inactive)

Incoming: # query: normalized growth of entry `NC1(C(=O)O)CC1`
Outgoing: 1.04 (inactive)

Incoming: Value lookup for normalized growth; key = `FC(F)(F)c1cccc(N2CCNCC2)c1`
Outgoing: 0.992 (inactive)

Incoming: For the molecule `NCCCCCC(=O)O` , what normalized growth is on record?
Outgoing: 1 (inactive)

Incoming: Recorded normalized growth of `COc1ccc(-c2oc3cc(OC)c(OC)c(OC)c3c(=O)c2OC)cc1` , please.
Outgoing: 0.911 (active)

Incoming: What measured normalized growth goes with NCC[C@@H](O)C(=O)N[C@@H]1C[C@H](N)[C@@H](O[C@H]2O[C@H](CN)[C@@H](O)[C@H](O)[C@H]2O)[C@H](O)[C@H]1O[C@H]1O[C@H](CO)[C@@H](O)[C@H](N)C1O (stereo partly drawn) ?
Outgoing: 1.03 (inactive)

Incoming: Form field: reported normalized growth of `CC(=O)OC/C=C(\C)CC/C=C(\C)CC/C=C(\C)CC/C=C(\C)CC/C=C(\C)CC/C=C(\C)CC/C=C(\C)CC/C=C(\C)CCC=C(C)C`
Outgoing: 0.981 (inactive)

Incoming: Which normalized growth value belongs to NC(C(=O)O)C(O)C(=O)O (stereo not drawn) ?
Outgoing: 0.996 (inactive)

Incoming: Field request: normalized growth | item: `Cc1cc(CC(=O)O)n(C)c1C(=O)c1ccc(Cl)cc1`
Outgoing: 1.04 (inactive)

Incoming: Request the reported normalized growth associated with COC(=O)/C(C)=C\CC12OC(C)(C)C3CC(C=C4C(=O)c5c(OC)c6c(c(CC=C(C)C)c5OC431)OC(C)(CCC=C(C)C)C=C6)C2=O (stereo not drawn)
Outgoing: 1.02 (inactive)

Incoming: Bench note: what normalized growth did CN[C@@H]1C(OC2[C@H](O[C@H]3[C@H](O)[C@@H](O)[C@H](N=C(N)N)[C@@H](O)[C@@H]3N=C(N)N)OC(C)[C@]2(O)CO)OC(CO)C(O)C1O (stereo partly drawn) show?
Outgoing: 0.996 (inactive)

Incoming: Data request, read-out normalized growth, for `O=NN(CCCl)C(=O)NCCCl`
Outgoing: 0.942 (inactive)

Incoming: What does the record list as normalized growth for CC12CCC3C(=CCc4cc(O)ccc43)C1CCC2=O (stereo not drawn) ?
Outgoing: 0.971 (inactive)

Incoming: I would be grateful if you could share the reported normalized growth for `CC(=O)O[C@]1(C)CC[C@@]23CC1C(C)(C)[C@@H]2CC[C@H]3C` .
Outgoing: 0.967 (inactive)

Incoming: Item under review: CC1OC(O[C@H]2/C=C/C=C/C=C/C=C/C=C/C=C/C=C/[C@H](C)[C@@H](O)[C@@H](C)[C@H](C)OC(=O)CC(O)CC(O)CCC(O)C(O)CC(O)C[C@]3(O)C[C@H](O)C(C(=O)O)C(C2)O3)C(O)[C@H](N)C1O (stereo partly drawn) . Reported normalized growth?
Outgoing: 1 (inactive)

Incoming: State the recorded normalized growth for this entry: `O=C(O)[C@@H](S)[C@@H](S)C(=O)O`
Outgoing: 0.967 (inactive)

Incoming: // lookup normalized growth for `Cc1ccc(C(=O)c2ccc(CC(=O)O)n2C)cc1`
Outgoing: 1.01 (inactive)

Incoming: GET /values?readout=normalized growth&item= `O=C1CCCN1CC#CCN1CCCC1`
Outgoing: 1.02 (inactive)

Incoming: Which normalized growth is listed for `CC(O)(P(=O)(O)O)P(=O)(O)O` ?
Outgoing: 0.993 (inactive)

Incoming: Return reported normalized growth; argument: C[C@]12CCC3c4ccc(OC(=O)c5ccccc5)cc4CCC3C1CCC2=O (stereo partly drawn)
Outgoing: 0.987 (inactive)

Incoming: Can you look up the measured normalized growth of `NCCCCC(=O)O` for me?
Outgoing: 1.02 (inactive)

Incoming: Which normalized growth is listed for `O=C(O)CCCCCCCC(=O)O` ?
Outgoing: 1.01 (inactive)

Incoming: For CC1CCC(NC(=O)N(CCCl)N=O)CC1 (stereo not drawn) , what is its reported normalized growth?
Outgoing: 0.965 (inactive)

Incoming: Quick one: normalized growth for `NC1(C(=O)O)CCCC1` ?
Outgoing: 1.01 (inactive)

Incoming: Give its normalized growth value. Item: CC(=O)O[C@H]1C[C@@]2(C)[C@@H](C[C@@H](O)C3[C@]2(C)CC[C@H]2[C@H](C)[C@H](O)CC[C@]32C)/C1=C(/CCC=C(C)C)C(=O)O (stereo partly drawn)
Outgoing: 1.04 (inactive)

Incoming: Which value of normalized growth has been reported for CC(=O)OCC(=O)[C@@]1(O)CCC2C3CCC4=CC(=O)C=CC4(C)C3[C@@H](O)C[C@@]21C (stereo partly drawn) in the records?
Outgoing: 0.996 (inactive)

Incoming: So what does the record say about normalized growth for NC(=O)CS(=O)C(c1ccccc1)c1ccccc1 (stereo not drawn) ?
Outgoing: 1.02 (inactive)

Incoming: Given the entry C[C@@H]1CC[C@H]2C(C)(C)C3CC12CC[C@@]3(C)O (stereo partly drawn) , report its measured normalized growth.
Outgoing: 0.754 (active)

Incoming: # lookup: normalized growth of `Clc1ccccc1CN1CCc2sccc2C1`
Outgoing: 1 (inactive)

Incoming: Which normalized growth is listed for Clc1ccc(C(c2ccccc2Cl)C(Cl)Cl)cc1 (stereo not drawn) ?
Outgoing: 0.948 (inactive)

Incoming: normalized growth for O=C(O)C1CCCNC1 (stereo not drawn) ?
Outgoing: 1.02 (inactive)

Incoming: I would be grateful if you could share the reported normalized growth for `Fc1ccc([C@@H]2CCNC[C@H]2COc2ccc3c(c2)OCO3)cc1` .
Outgoing: 0.991 (inactive)

Incoming: Find the recorded normalized growth belonging to `CC(=O)N[C@@H](CCC(=O)O)C(=O)O` and report it.
Outgoing: 1.03 (inactive)

Incoming: # lookup: normalized growth of `COC(=O)[C@H](c1ccccc1Cl)N1CCc2sccc2C1`
Outgoing: 0.994 (inactive)

Incoming: Record request: normalized growth value, item Cc1cccc(C)c1NC(=O)C1CCCCN1C (stereo not drawn)
Outgoing: 0.979 (inactive)

Incoming: Return reported normalized growth; argument: `COc1ccc2oc3ccccc3c(=O)c2c1`
Outgoing: 0.896 (active)

Incoming: normalized growth for `CN(C)C(=O)Oc1ccc[n+](C)c1` ?
Outgoing: 0.999 (inactive)

Incoming: Item CC(C)=CC1C(C(=O)OCc2cccc(Oc3ccccc3)c2)C1(C)C (stereo not drawn) has what recorded normalized growth?
Outgoing: 1.01 (inactive)

Incoming: Could you share which normalized growth value was measured for CCC(C)C(=O)c1c(O)c(C)c2oc3c(C)c(O)c(C(=O)C(C)CC)c(O)c3c2c1O (stereo not drawn) ?
Outgoing: 0.98 (inactive)

Incoming: Give its normalized growth value. Item: `C1N2CN3CN1CN(C2)C3`
Outgoing: 0.991 (inactive)

Incoming: Fill in the blank: the reported normalized growth of CC1[C@H](C)OC(=O)CC(O)CC(O)CC(O)CCC(O)C(O)C[C@]2(O)CC(O)C(C(=O)O)C(CC(OC3O[C@H](C)[C@@H](O)[C@H](N)[C@@H]3O)/C=C/C=C/C=C/C=C/CC/C=C/C=C/[C@H](C)[C@H]1O)O2 (stereo partly drawn) is ____.
Outgoing: 0.931 (inactive)

Incoming: Any idea what its normalized growth is? The molecule is `N[C@@H](C(=O)O)[C@@H](O)[C@H](O)[C@H](O)CO`
Outgoing: 1.03 (inactive)

Incoming: Report normalized growth for `CN(C/C=C/C#CC(C)(C)C)Cc1cccc2ccccc12` please.
Outgoing: 0.256 (active)
